molecular target: full-length beta-Catenin (Uniprot ID P35222) (Homo sapiens (Human)) (UniProt P35222); assay: FP competition: displacement of 5FAM-TCF4(10-53) from full-length beta-catenin
Sequence (P35222 whole entry): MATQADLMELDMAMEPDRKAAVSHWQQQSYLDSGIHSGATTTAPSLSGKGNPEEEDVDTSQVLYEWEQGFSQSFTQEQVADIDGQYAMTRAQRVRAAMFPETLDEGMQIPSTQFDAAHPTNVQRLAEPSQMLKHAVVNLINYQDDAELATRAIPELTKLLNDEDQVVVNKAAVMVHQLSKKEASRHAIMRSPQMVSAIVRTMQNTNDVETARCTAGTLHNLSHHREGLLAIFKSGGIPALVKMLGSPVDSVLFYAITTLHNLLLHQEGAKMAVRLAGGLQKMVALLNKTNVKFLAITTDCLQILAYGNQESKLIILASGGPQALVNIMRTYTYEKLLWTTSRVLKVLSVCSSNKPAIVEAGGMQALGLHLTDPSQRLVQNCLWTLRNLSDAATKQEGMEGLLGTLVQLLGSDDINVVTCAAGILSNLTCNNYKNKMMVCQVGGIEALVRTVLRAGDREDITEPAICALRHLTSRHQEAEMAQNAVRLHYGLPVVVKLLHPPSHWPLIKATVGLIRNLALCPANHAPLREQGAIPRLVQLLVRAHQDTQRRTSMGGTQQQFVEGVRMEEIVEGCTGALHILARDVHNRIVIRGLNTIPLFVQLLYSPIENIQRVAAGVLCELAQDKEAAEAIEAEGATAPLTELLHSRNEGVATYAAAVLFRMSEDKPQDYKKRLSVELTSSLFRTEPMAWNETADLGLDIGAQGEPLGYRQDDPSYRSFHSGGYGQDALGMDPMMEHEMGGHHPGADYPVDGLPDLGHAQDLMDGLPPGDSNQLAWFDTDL
pEC50: −log10 of the molar value. Starred links: 1 amine or outer side, 2 acyl side, 3 side chain; linkers in the order of their positions; H or OH if unused. Positions of bridges follow the written chain, without caps; N, C: chain ends. Non-standard residues stand in square brackets, D forms with d. Primed or numbered codes have the meaning given here. PyrS2″ = (S)-3-amino-1-((pent-4-en-1-yloxy)carbonyl)pyrrolidine-3-carboxylic acid (stapling residue), C=CCCCOC(=O)N1CC[C@@](N[*:1])(C(=O)[*:2])C1; B5(4) = 2,2-bis(4-pentenyl)glycine = 2-amino-2-(pent-4-en-1-yl)hept-6-enoic acid (stitching residue), C=CCCCC(CCCC=C)(N[*:1])C(=O)[*:2]; B5(5) = 2,2-bis(4-pentenyl)glycine, 2-amino-2-(pent-4-en-1-yl)hept-6-enoic acid (stitching residue), C=CCCCC(CCCC=C)(N[*:1])C(=O)[*:2]; TfeGA = (S)-2-amino-3-((carboxymethyl)(2,2,2-trifluoroethyl)amino)propanoic acid, O=C([C@H](CN(CC(=O)[*:3])CC(F)(F)F)N[*:1])[*:2]; Phe(2-Cl) = N[C@@H](Cc1ccccc1Cl)C(=O)O; Bta = N[C@@H](Cc1csc2ccccc12)C(=O)O; αAllylPro = C=CC[C@@]1(C(=O)O)CCCN1; tBuAla = CC(C)(C)C[C@H](N)C(=O)O; 3Thi = N[C@@H](Cc1ccsc1)C(=O)O; Leu(ol) = CC(C)C[C@H](N)CO; hSer = N[C@@H](CCO)C(=O)O
PARAMETER_MEASURED: pEC50

Ac-[αAllylPro][hSer][tBuAla][B5(5)]DDAAFL[PyrS2″][3Thi][Bta]Q-NH2 (staple 1-4, 4-11) [I-1229] :: 6.87
Ac-[αAllylPro]D[tBuAla][B5(4)]D[TfeGA]AAFT[PyrS2″][Phe(2-Cl)][Bta][Leu(ol)] (staple 1-4, 4-11) [I-1243] :: 7.09
Ac-[αAllylPro]D[tBuAla][B5(5)][hSer]DAAFL[PyrS2″][3Thi][Bta]Q-NH2 (staple 1-4, 4-11) [I-1215] :: 6.67

Source of measurements: patent US20240116985A1
